Measured on: Human full-length SHP2 recombinant protein (Homo sapiens (Human), UniProt Q06124)
Sequence (Q06124 whole entry): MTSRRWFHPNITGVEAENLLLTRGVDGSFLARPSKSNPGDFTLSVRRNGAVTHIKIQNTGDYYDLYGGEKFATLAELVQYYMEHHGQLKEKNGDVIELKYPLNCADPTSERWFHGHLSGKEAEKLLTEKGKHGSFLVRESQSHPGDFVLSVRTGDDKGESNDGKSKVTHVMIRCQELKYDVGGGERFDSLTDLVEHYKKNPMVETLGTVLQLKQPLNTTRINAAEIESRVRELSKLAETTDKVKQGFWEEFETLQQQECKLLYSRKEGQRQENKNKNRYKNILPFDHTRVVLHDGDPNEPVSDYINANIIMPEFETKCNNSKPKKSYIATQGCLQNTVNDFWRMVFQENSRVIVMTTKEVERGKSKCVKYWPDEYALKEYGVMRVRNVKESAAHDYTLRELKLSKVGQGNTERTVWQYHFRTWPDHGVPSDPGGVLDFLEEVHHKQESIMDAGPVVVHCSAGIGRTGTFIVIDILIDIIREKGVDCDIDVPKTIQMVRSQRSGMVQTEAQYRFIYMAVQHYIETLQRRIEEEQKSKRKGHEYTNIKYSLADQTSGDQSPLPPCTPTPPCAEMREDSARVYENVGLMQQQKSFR
Measurement description: Assay of full-length SHP2 phosphatase activity
Setup conditions: DiFMUP substrate, with activating peptide
Measure name: IC50 (nM)

- Compound: "C#Cc1ccc2c(c1)[C@@H](N)C1(CCN(c3cc(=O)n(-c4ccc(F)c(OC)c4Cl)c(C)n3)CC1)C2 [Compound 157]"
  Measurement qualifier: "="
  Recorded result: 2
- Compound: "CC#Cc1ccc2c(c1)[C@@H](N)C1(CCN(c3cc(=O)n(-c4ccc(F)c(F)c4Cl)c(C)n3)CC1)C2 [Compound 214]"
  Measurement qualifier: "="
  Recorded result: 4
- Compound: "CCNC(=O)C#Cc1ccc2c(c1)[C@@H](N)C1(CCN(c3cnc(Sc4ccnc(N)n4)cn3)CC1)C2"
  Measurement qualifier: "="
  Recorded result: 1
- Compound: "C#Cc1ccc2c(c1)[C@@H](N)C1(CCN(c3nc(C)n(-c4cccc(Cl)c4Cl)c(=O)c3C)CC1)C2 (atropisomer, axis not shown) [Compound 49]"
  Measurement qualifier: "="
  Recorded result: 3
- Compound: "CNC(=O)C#Cc1ccc2c(c1)[C@@H](N)C1(CCN(c3cnc(Sc4cc(N)nc(Cl)c4Cl)c(N)n3)CC1)C2"
  Measurement qualifier: "="
  Recorded result: 1
- Compound: "C#Cc1ccc2c(c1)[C@@H](N)C1(CCN(c3cc(=O)n(-c4ccc(F)c(Cl)c4Cl)c(C)n3)CC1)C2 (atropisomer, axis not shown) [Compound 109]"
  Measurement qualifier: "="
  Recorded result: 118
- Compound: "CNC(=O)C#Cc1ccc2c(c1)[C@@H](N)C1(CCN(c3cc(=O)n(-c4cccc(Cl)c4Cl)c(C)n3)CC1)C2"
  Measurement qualifier: "="
  Recorded result: 1
- Compound: "CNC(=O)C#Cc1ccc2c(c1)[C@@H](N)C1(CCN(c3nc(N)c(Sc4ccnc(C)c4Cl)nc3C)CC1)C2"
  Measurement qualifier: "="
  Recorded result: 1
- Compound: "C#Cc1ccc2c(c1)[C@@H](N)C1(CCN(c3cc(=O)n(-c4cccc(Cl)c4F)c(C)n3)CC1)C2 (atropisomer, axis not shown) [Compound 66]"
  Measurement qualifier: "="
  Recorded result: 24
- Compound: "COCC#Cc1ccc2c(c1)[C@@H](N)C1(CCN(c3cc(=O)n(-c4ccc(F)c(OC)c4F)c(C)n3)CC1)C2"
  Measurement qualifier: "="
  Recorded result: 2
- Compound: "C#Cc1ccc2c(c1)[C@@H](N)C1(CCN(c3cc(=O)n(-c4cccc(Cl)c4Cl)c(C)n3)CC1)O2"
  Measurement qualifier: "="
  Recorded result: 11
- Compound: "CNC(=O)C#Cc1ccc2c(c1)[C@@H](N)C1(CCN(c3nc(N)c(Sc4ccnc(N)c4Cl)nc3F)CC1)C2"
  Measurement qualifier: "="
  Recorded result: 3
- Compound: "C#Cc1ccc2c(c1)[C@@H](N)C1(CCN(c3cc(=O)n(-c4ccc(F)c(F)c4)c(C)n3)CC1)C2"
  Measurement qualifier: "="
  Recorded result: 8
- Compound: "C#Cc1ccc2c(c1)[C@@H](N)C1(CCN(c3ncc(Sc4ccnc(N)c4Cl)c(N)n3)CC1)C2"
  Measurement qualifier: "="
  Recorded result: 12
- Compound: "CNC(=O)C#Cc1ccc2c(c1)[C@@H](N)C1(CCN(c3ncc(Sc4ccnc(N)c4Cl)c4nccn34)CC1)C2"
  Measurement qualifier: "="
  Recorded result: 1
- Compound: "C#Cc1ccc2c(c1)[C@@H](N)C1(CCN(c3cc(=O)n(-c4cccc(Cl)c4Cl)c(C(F)(F)F)n3)CC1)C2"
  Measurement qualifier: ">"
  Recorded result: 1000
- Compound: "C#Cc1ccc2c(c1)[C@@H](N)C1(CCN(c3nc(C)n(-c4cccc(Cl)c4Cl)c(=O)c3F)CC1)C2"
  Measurement qualifier: "="
  Recorded result: 6
- Compound: "C#Cc1ccc2c(c1)CC1(CCN(c3ncc(Sc4ccnc(N)n4)c4nccn34)CC1)[C@@H]2N"
  Measurement qualifier: "="
  Recorded result: 4
- Compound: "CCCNC(=O)C#Cc1ccc2c(c1)[C@@H](N)C1(CCN(c3nc(N)c(Sc4ccnc(N)c4Cl)nc3C)CC1)C2"
  Measurement qualifier: "="
  Recorded result: 3.9
- Compound: "CNC(=O)C#Cc1ccc2c(c1)[C@@H](N)C1(CCN(c3cnc(Sc4cccnc4C(F)(F)F)c(N)n3)CC1)C2"
  Measurement qualifier: "="
  Recorded result: 1.3
- Compound: "C#Cc1ccc2c(c1)CC1(CCN(c3cc(=O)n(-c4ccc(Cl)cc4)c(C)n3)CC1)[C@@H]2N"
  Measurement qualifier: "="
  Recorded result: 348
- Compound: "COCCSc1ccc2c(c1)[C@@H](N)C1(CCN(c3cc(=O)n(-c4cccc(Cl)c4Cl)c(C)n3)CC1)C2"
  Measurement qualifier: "="
  Recorded result: 2
- Compound: "C#Cc1ccc2c(c1)[C@@H](N)C1(CCN(c3cc(=O)n(-c4ccc(F)c(OC)c4)c(C)n3)CC1)C2"
  Measurement qualifier: "="
  Recorded result: 25
- Compound: "C#Cc1ccc2c(c1)[C@@H](N)C1(CCN(c3cc(=O)n(-c4ccc(C#N)c(Cl)c4Cl)c(C)n3)CC1)C2 (atropisomer, axis not shown) [Compound 193]"
  Measurement qualifier: "="
  Recorded result: 1
- Compound: "C#Cc1ccc2c(c1)[C@@H](N)C1(CCN(c3cc(=O)n(-c4cccc(OC)c4Cl)c(C)n3)CC1)C2 (atropisomer, axis not shown) [Compound 111]"
  Measurement qualifier: "="
  Recorded result: 2
- Compound: "C#Cc1ccc2c(c1)[C@@H](N)C1(CCN(c3cc(=O)n(-c4ccc(OC)c(Cl)c4Cl)c(C)n3)CC1)C2"
  Measurement qualifier: "="
  Recorded result: 17
